tested on: Streptococcus pyogenes; experiment: Antibacterial activity against erythromycin-resistant Streptococcus pyogenes 12-1 assessed as inhibition of bacterial growth by CLSI based micro broth double dilution method; format: functional
endpoint-label: MIC (µg/mL)
Use µg/mL as the unit, but write only the number.

Below, 3 compounds whose answers are already recorded.
# compound, unit-of-measure, MIC
measured = [
    ("CC[C@H]1OC(=O)[C@@](C)(F)C(=O)[C@H](C)[C@@H](O[C@@H]2O[C@H](C)C[C@H](N(C)C)[C@H]2O)[C@@](C)(OC)C[C@@H](C)C(=O)[C@H](C)[C@H]2N(CCCN(C(C)=O)c3ccnc4ccccc34)C(=O)O[C@]12C", "µg/mL", 2),
    ("CC[C@H]1OC(=O)[C@@](C)(F)C(=O)[C@H](C)[C@@H](O[C@@H]2O[C@H](C)C[C@H](N(C)C)[C@H]2O)[C@@](C)(OC)C[C@@H](C)C(=O)[C@H](C)[C@H]2N(CCCNc3cnc4ccccc4c3)C(=O)O[C@]12C", "µg/mL", 32),
    ("CC[C@H]1OC(=O)[C@@](C)(F)C(=O)[C@H](C)[C@@H](O[C@@H]2O[C@H](C)C[C@H](N(C)C)[C@H]2O)[C@@](C)(OC)C[C@@H](C)C(=O)[C@H](C)[C@H]2N(CCCOc3ccnc4ccccc34)C(=O)O[C@]12C", "µg/mL", 16),
]

The reported Streptococcus pyogenes MIC of CC[C@H]1OC(=O)[C@H](C)C(=O)[C@H](C)[C@@H](O[C@@H]2O[C@H](C)C[C@H](N(C)C)[C@H]2O)[C@](C)(OC)C[C@@H](C)C(=O)[C@H](C)[C@H]2N(CCCCn3cnc(-c4cccnc4)c3)C(=O)O[C@]12C [TELITHROMYCIN] is 64

Tested on Streptococcus pyogenes, the item `CC[C@H]1OC(=O)[C@@](C)(F)C(=O)[C@H](C)[C@@H](O[C@@H]2O[C@H](C)C[C@H](N(C)C)[C@H]2O)[C@@](C)(OC)C[C@@H](C)C(=O)[C@H](C)[C@H]2N(CCCN(C(=O)CCc3ccccc3)c3cnc4ccccc4c3)C(=O)O[C@]12C` showed MIC equal to 16

Entry `CC[C@H]1OC(=O)[C@@](C)(F)C(=O)[C@H](C)[C@@H](O[C@@H]2O[C@H](C)C[C@H](N(C)C)[C@H]2O)[C@@](C)(OC)C[C@@H](C)C(=O)[C@H](C)[C@H]2N(CCCN(Cc3ccccc3)c3cnc4ccccc4c3)C(=O)O[C@]12C` under Streptococcus pyogenes had MIC of 8

MIC value, target or system Streptococcus pyogenes, for `CC[C@H]1OC(=O)[C@@](C)(F)C(=O)[C@H](C)[C@@H](O[C@@H]2O[C@H](C)C[C@H](N(C)C)[C@H]2O)[C@@](C)(OC)C[C@@H](C)C(=O)[C@H](C)[C@H]2N(CCCN(C(=O)/C=C/c3ccccc3)c3cnc4ccccc4c3)C(=O)O[C@]12C` : 8

----------
tested on: Staphylococcus aureus; experiment: Antibacterial activity against methicillin-sensitive Staphylococcus aureus ATCC 29213 assessed as inhibition of bacterial growth by CLSI based micro broth double dilution method; assay type: functional
endpoint-label: MIC (µg/mL)
// units = µg/mL; emit number, no label

# smiles-input, unit-of-measure, MIC
measured = [
    ("CC[C@H]1OC(=O)[C@@](C)(F)C(=O)[C@H](C)[C@@H](O[C@@H]2O[C@H](C)C[C@H](N(C)C)[C@H]2O)[C@@](C)(OC)C[C@@H](C)C(=O)[C@H](C)[C@H]2N(CCCN(C(=O)/C=C/c3ccccc3)c3cnc4ccccc4c3)C(=O)O[C@]12C", "µg/mL", 1),
    ("CC[C@H]1OC(=O)[C@H](C)C(=O)[C@H](C)[C@@H](O[C@@H]2O[C@H](C)C[C@H](N(C)C)[C@H]2O)[C@](C)(OC)C[C@@H](C)C(=O)[C@H](C)[C@H]2N(CCCCn3cnc(-c4cccnc4)c3)C(=O)O[C@]12C", "µg/mL", 0.25),
    ("CC[C@H]1OC(=O)[C@@](C)(F)C(=O)[C@H](C)[C@@H](O[C@@H]2O[C@H](C)C[C@H](N(C)C)[C@H]2O)[C@@](C)(OC)C[C@@H](C)C(=O)[C@H](C)[C@H]2N(CCCN(C(C)=O)c3ccnc4ccccc34)C(=O)O[C@]12C", "µg/mL", 0.12),
]

GET /value?item= `CC[C@H]1OC(=O)[C@@](C)(F)C(=O)[C@H](C)[C@@H](O[C@@H]2O[C@H](C)C[C@H](N(C)C)[C@H]2O)[C@@](C)(OC)C[C@@H](C)C(=O)[C@H](C)[C@H]2N(CCCN(Cc3ccccc3)c3cnc4ccccc4c3)C(=O)O[C@]12C` &field=MIC returns 1

----------
tested on: Staphylococcus aureus; assay: Antibacterial activity against methicillin-sensitive Staphylococcus aureus 15 assessed as inhibition of bacterial growth by CLSI based micro broth double dilution method; assay type: functional
endpoint-label: MIC (µg/mL)
Report the value in µg/mL with no unit label.

# smiles-input, endpoint-label, test-value
records = [
    ("CC[C@H]1OC(=O)[C@@](C)(F)C(=O)[C@H](C)[C@@H](O[C@@H]2O[C@H](C)C[C@H](N(C)C)[C@H]2O)[C@@](C)(OC)C[C@@H](C)C(=O)[C@H](C)[C@H]2N(CCCN(Cc3ccccc3)c3ccnc4ccccc34)C(=O)O[C@]12C", "MIC", 1),
]

Entry `CC[C@H]1OC(=O)[C@@](C)(F)C(=O)[C@H](C)[C@@H](O[C@@H]2O[C@H](C)C[C@H](N(C)C)[C@H]2O)[C@@](C)(OC)C[C@@H](C)C(=O)[C@H](C)[C@H]2N(CCCN(C(C)=O)c3cnc4ccccc4c3)C(=O)O[C@]12C` ; MIC = 0.25

Entry under test: `CC[C@H]1OC(=O)[C@@](C)(F)C(=O)[C@H](C)[C@@H](O[C@@H]2O[C@H](C)C[C@H](N(C)C)[C@H]2O)[C@@](C)(OC)C[C@@H](C)C(=O)[C@H](C)[C@H]2N(CCCNc3ccnc4ccccc34)C(=O)O[C@]12C` . Its MIC was 0.12

Reported MIC of `CC[C@H]1OC(=O)[C@@](C)(F)C(=O)[C@H](C)[C@@H](O[C@@H]2O[C@H](C)C[C@H](N(C)C)[C@H]2O)[C@@](C)(OC)C[C@@H](C)C(=O)[C@H](C)[C@H]2N(CCCN(C(=O)c3ccccc3)c3ccnc4ccccc34)C(=O)O[C@]12C` : 1

----------
test system: Staphylococcus aureus; assay: Antibacterial activity against methicillin-sensitive Staphylococcus aureus ATCC 29213 assessed as inhibition of bacterial growth by CLSI based micro broth double dilution method; format: functional
endpoint-label: MIC (µg/mL)
The figure you give is taken to be in µg/mL; do not add the unit.

Observe how each entry below is paired with its result.
# smiles-input, endpoint-label, test-value
data = [
    ("CC[C@H]1OC(=O)[C@H](C)[C@@H](O[C@H]2C[C@@](C)(OC)[C@@H](O)[C@H](C)O2)[C@H](C)[C@@H](O[C@@H]2O[C@H](C)C[C@H](N(C)C)[C@H]2O)[C@](C)(OC)C[C@@H](C)C(=O)[C@H](C)[C@@H](O)[C@]1(C)O", "MIC", 0.25),
    ("CC[C@H]1OC(=O)[C@@](C)(F)C(=O)[C@H](C)[C@@H](O[C@@H]2O[C@H](C)C[C@H](N(C)C)[C@H]2O)[C@@](C)(OC)C[C@@H](C)C(=O)[C@H](C)[C@H]2N(CCCN(C(=O)CCc3ccccc3)c3cnc4ccccc4c3)C(=O)O[C@]12C", "MIC", 1),
    ("CC[C@H]1OC(=O)[C@@](C)(F)C(=O)[C@H](C)[C@@H](O[C@@H]2O[C@H](C)C[C@H](N(C)C)[C@H]2O)[C@@](C)(OC)C[C@@H](C)C(=O)[C@H](C)[C@H]2N(CCCN(C(=O)c3ccccc3)c3cnc4ccccc4c3)C(=O)O[C@]12C", "MIC", 0.25),
]

Now for the molecule whose MIC we want.
Lab note: `CC[C@H]1OC(=O)[C@@](C)(F)C(=O)[C@H](C)[C@@H](O[C@@H]2O[C@H](C)C[C@H](N(C)C)[C@H]2O)[C@@](C)(OC)C[C@@H](C)C(=O)[C@H](C)[C@H]2N(CCCNc3cnc4ccccc4c3)C(=O)O[C@]12C` gave MIC of 0.12

----------
tested on: Staphylococcus epidermidis; experiment: Antibacterial activity against methicillin-sensitive Staphylococcus epidermidis 16-4 assessed as inhibition of bacterial growth by CLSI based micro broth double dilution method; format: functional
endpoint-label: MIC (µg/mL)
Form entry: value (µg/mL) — number only.

# smiles-input, MIC [µg/mL]
data = [
    ("CC[C@H]1OC(=O)[C@@](C)(F)C(=O)[C@H](C)[C@@H](O[C@@H]2O[C@H](C)C[C@H](N(C)C)[C@H]2O)[C@@](C)(OC)C[C@@H](C)C(=O)[C@H](C)[C@H]2N(CCCN(C(=O)c3ccccc3)c3ccnc4ccccc34)C(=O)O[C@]12C", 1),
]

Looking up `CC[C@H]1OC(=O)[C@@](C)(F)C(=O)[C@H](C)[C@@H](O[C@@H]2O[C@H](C)C[C@H](N(C)C)[C@H]2O)[C@@](C)(OC)C[C@@H](C)C(=O)[C@H](C)[C@H]2N(CCCN(C(=O)CCc3ccccc3)c3cnc4ccccc4c3)C(=O)O[C@]12C` , I found its MIC recorded as 4

Recorded MIC (compound `CC[C@H]1OC(=O)[C@@](C)(F)C(=O)[C@H](C)[C@@H](O[C@@H]2O[C@H](C)C[C@H](N(C)C)[C@H]2O)[C@@](C)(OC)C[C@@H](C)C(=O)[C@H](C)[C@H]2N(CCCN(C(C)=O)c3ccnc4ccccc34)C(=O)O[C@]12C` ): 0.25

Recorded MIC (compound `CC[C@H]1OC(=O)[C@@](C)(F)C(=O)[C@H](C)[C@@H](O[C@@H]2O[C@H](C)C[C@H](N(C)C)[C@H]2O)[C@@](C)(OC)C[C@@H](C)C(=O)[C@H](C)[C@H]2N(CCCN(C(=O)c3ccccc3)c3cnc4ccccc4c3)C(=O)O[C@]12C` ): 1

The compound identified as `CC[C@H]1OC(=O)[C@@](C)(F)C(=O)[C@H](C)[C@@H](O[C@@H]2O[C@H](C)C[C@H](N(C)C)[C@H]2O)[C@@](C)(OC)C[C@@H](C)C(=O)[C@H](C)[C@H]2N(CCCNc3cnc4ccccc4c3)C(=O)O[C@]12C` registered its MIC at 0.12

Quick note, MIC for `CC[C@H]1OC(=O)[C@@](C)(F)C(=O)[C@H](C)[C@@H](O[C@@H]2O[C@H](C)C[C@H](N(C)C)[C@H]2O)[C@@](C)(OC)C[C@@H](C)C(=O)[C@H](C)[C@H]2N(CCCN(Cc3ccccc3)c3ccnc4ccccc34)C(=O)O[C@]12C` landed at 2

compound `CC[C@H]1OC(=O)[C@@](C)(F)C(=O)[C@H](C)[C@@H](O[C@@H]2O[C@H](C)C[C@H](N(C)C)[C@H]2O)[C@@](C)(OC)C[C@@H](C)C(=O)[C@H](C)[C@H]2N(CCCOc3ccnc4ccccc34)C(=O)O[C@]12C` , MIC observed: 1

`CC[C@H]1OC(=O)[C@@](C)(F)C(=O)[C@H](C)[C@@H](O[C@@H]2O[C@H](C)C[C@H](N(C)C)[C@H]2O)[C@@](C)(OC)C[C@@H](C)C(=O)[C@H](C)[C@H]2N(CCCNc3ccnc4ccccc34)C(=O)O[C@]12C` has a reported MIC of 0.25

Data credit: ChEMBL document CHEMBL5236651
